Classification scheme (MDR1-MDCK efflux ratio): bin 1 (below 0.8), bin 2 (0.8 to below 7), bin 3 (7 or more)

The examples below pair each entry with its known result.
CCN(Cc1ccccc1)C(=O)c1ccc(O)cc1O    bin 2
COc1ccc2nc(C)c(C(=O)Nc3ccccc3N3CCCC3)cc2c1    bin 1
CCN1CCN(S(=O)(=O)c2c[nH]c(C(C)C)n2)c2ccccc21    bin 3
CC(C)c1ccc2c(c1)[C@H](NC(=O)Cn1ccnn1)CCC2    bin 2
c1ccc(CCc2n[nH]c(-c3cccc4cnccc34)n2)cc1    bin 2
Cc1ccnc(-n2nccc2NC(=O)NC2(C)CCC2)c1    bin 1

Ask: Given COC(=O)N1CCCN(C(=O)C(=O)Nc2cccc(C(C)C)c2)CC1 , name the class its MDR1-MDCK efflux ratio places it in.
Reply: bin 2

Ask: Given O=C(Nc1ccn(CC(F)F)n1)NC1CCN(C2CCCC2)CC1 , name the class its MDR1-MDCK efflux ratio places it in.
Reply: bin 3

Ask: Given Cc1ccc(CNc2ncnn2C)nc1 , name the class its MDR1-MDCK efflux ratio places it in.
Reply: bin 1

Ask: Given Cc1cnc(-c2nc(NCc3ccccn3)ncc2-c2onc(C)c2C)cn1 , name the class its MDR1-MDCK efflux ratio places it in.
Reply: bin 3
